Species: Rattus norvegicus
Test: Open TG-GATES - Regimen: Daily Repeat
Assay type: toxicity, organism-based, Sprague-Dawley
Set-up: regimen Daily Repeat, gender Male, age 6 weeks
Conditions: in vivo, po, 300 mg/kg, […], tissue Blood, route gavage, dose level Middle, time 7 day
quantityMeasured: RBC (x10_4/ul)
The figure you give is taken to be in x10_4/ul; do not add the unit.

IN: What does the record list as RBC for `O=C(O)c1ccccc1Nc1ccccc1` ?
OUT: 656.8

IN: Given the entry CC(S)C(=O)NCC(=O)O (centres undefined) , report its measured RBC.
OUT: 649.6

IN: # input molecule: `CC(=O)[C@@]1(O)CC[C@H]2[C@@H]3C=C(Cl)C4=CC(=O)CC[C@]4(C)[C@H]3CC[C@@]21C` ; wanted: its RBC
OUT: 704.2

IN: Which RBC value is on record for CCCCNC(=O)NS(=O)(=O)c1ccc(C)cc1 [TOLBUTAMIDE] ?
OUT: 674.4
